experiment: qHTS Assay for inhibitors of the human cytomegalovirus (HCMV); conditions: HFF cells, HCMV-luciferase reporter, 72 h; at 57.5 µM
About 18,000 (4.4%) of roughly 410,000 compounds were called active. Inconclusive results (about 7%) are left out. Cut-off read from the data, not from the text of the source: active = activity change below about -60%; inconclusive = no clear call, values can overlap the other calls; inactive = above about -39%. For the sample, actives were picked, then their nearest neighbours and some compounds at random.
Pick one and only one: yes = active, no = inactive

These recorded examples may help you get a feel for the data.
Q: Hello, I am checking results. What call was entered for `CCN(CC)c1ccc(NC(=O)CN2CCN(c3ccccn3)CC2)cc1` ?
Ans: no

Q: Recorded call for `Cc1cccc(N2CCN(C(=O)CCSCc3ccccc3F)CC2)c1C` ?
Ans: no

Q: // param item: `CN(C(=O)CN1CCN(c2cc(-c3ccc(OCc4ccccc4)cc3)ncn2)CC1)c1ccccc1` ; yields the recorded call
Ans: yes

New cases:
Q: Give the logged outcome of this assay for the following compound: `Cc1ccccc1CSc1nc2c([nH]c3ccccc32)c(=O)n1C`
Ans: no

Q: For `CCn1cc2nc(SCc3cccc(F)c3)n(CCc3ccccc3)c(=O)c2n1` , which call appears in the assay record?
Ans: no

Q: Please share the test call associated with `CCOc1ccccc1N(CC)C(=O)c1cc2ccc3cccnc3c2[nH]1` .
Ans: no

Q: Recorded test call requested for `Cc1cccc(N2CCN(c3c(CN4CCCC4)c(=O)oc4ccccc34)CC2)c1C`
Ans: no

Q: Name the outcome recorded for `CCOc1ccc(OCc2ccc(C(=O)N(C)c3ccccc3)o2)cc1` in the assay.
Ans: no

Q: Would you mind telling me which call this test gave `CCC(C)(C)c1ccc(Oc2ccc(NC(=O)COC(=O)C3=COCCO3)cc2)cc1` ?
Ans: yes

Q: For `CC(C)OCCCn1c(SCC(=O)c2ccccc2)nc2c(sc3ccccc32)c1=O` , what call appears in the results of this test?
Ans: no

Q: Recorded call for `Cc1ccc(-n2c(SCC(=O)c3ccccc3)nc3c([nH]c4ccccc43)c2=O)cc1` ?
Ans: no

====

assay: qHTS Assay for inhibitors of the human cytomegalovirus (HCMV); settings: HFF cells, HCMV-luciferase reporter, 72 h; at 57.5 µM; active compounds read low
The campaign covered roughly 410,000 compounds. About 18,000 (4.4%) were called active. About 7% were inconclusive and are not listed. Many of the other results were omitted from the sample, so actives are more common in it than they were.
Threshold-based label: activity change, negative = inhibition under -20% gives criterion met, activity change, negative = inhibition not under -20% gives criterion not met.

Q: Identify whether the molecule COc1cccc2cc(-c3nc(Cl)c4c5c(sc4n3)CC(C)CC5)c(=O)oc12 (configuration not stated) records activity change, negative = inhibition below -20%.
Ans: criterion not met

Q: Is the reported activity change, negative = inhibition for `COc1ccc(NC(=O)CN2C(=O)C(c3ccccc3)=NC23CCCCCC3)cc1OC` strictly below -20%?
Ans: criterion not met

Q: Consider CCC(C)c1ccc2oc(-c3ccc(NC(=O)c4cc5ccccc5o4)cc3)nc2c1 (configuration not stated) . Does its activity change, negative = inhibition lie strictly below -20%?
Ans: criterion not met

Q: Consider O=c1[nH]c2ccccc2n1C1CCN(C(c2ccnc3ccccc23)c2nnnn2Cc2ccccc2)CC1 (configuration not stated) . Does its activity change, negative = inhibition lie strictly below -20%?
Ans: criterion met

Q: For COc1ccccc1CNC(=O)c1ccc(NC(=O)N2CC(C)Sc3ccccc32)cc1 (configuration not stated) , is the recorded activity change, negative = inhibition below the cut-off of -20%?
Ans: criterion not met

Others:
Q: Is activity change, negative = inhibition strictly under -20% for the entry `COC(=O)c1ccc(COC(=O)CNC(=O)c2cccc(OC)c2)o1` ?
Ans: criterion met

Q: Regarding `O=C(N/C(=C\c1ccc(O)cc1)C(=O)N1CCCCC1)c1ccccc1` , kindly confirm whether its activity change, negative = inhibition is beneath -20%.
Ans: criterion not met
